Assay: LC retention time (Atlantis T3, 5-95% MeOH gradient, 0.1% formic acid); higher = more retained / less polar
So I've got a bunch of molecules here, and I need their LC retention time values.
Answers are plain numbers, in min.

>>> df
                       molecule  experimental_result
0  Oc1ccc(C=Cc2cc(O)cc(O)c2)cc1                 15.5

Each molecule below has a recorded value; state its LC retention time.
1. CC(C)CC(C)(O)C#CC(C)(O)CC(C)C (centres undefined) [Surfynol-104A]
2. CC(C)c1nc(CN(C)C(=O)NC(C(=O)NC(Cc2ccccc2)CC(O)C(Cc2ccccc2)NC(=O)OCc2cncs2)C(C)C)cs1 (centres undefined)
3. NC(=O)c1ncn(C2OC(CO)C(O)C2O)n1 (centres undefined)

20.9
21
4.79

Each molecule below has a recorded value; state its LC retention time.
1. CCC[NH+](CC)CC1COC2(CCC(C(C)(C)C)CC2)O1 (centres undefined)
2. C[N-]S(=O)(=O)C(F)(F)C(F)(F)C(F)(F)C(F)(F)C(F)(F)C(F)(F)C(F)(F)C(F)(F)F

[16.9, 22.3]

Each molecule below has a recorded value; state its LC retention time.
1. COc1cc(NC(C)CCC[NH3+])c2ncccc2c1 (centres undefined)
2. O=c1ccn(C2OC(CO)C(O)C2(F)F)c(=O)[nH]1 (centres undefined)
3. Cc1cncc(C(=O)[O-])c1
4. COc1ccc2c3c1OC1C(O)CCC4C(C2)[NH+](C)CCC341 (centres undefined) [Dihydrocodeine]
5. COc1ccc(C(=CC(=O)N2CCOCC2)c2ccc(Cl)cc2)cc1OC

14.4
9.37
6.89
9.1
19.5

Each molecule below has a recorded value; state its LC retention time.
1. C[NH2+]CCC(c1ccccc1)c1ccccn1 (centres undefined)
2. CCN(C)C(=O)Oc1cccc(C(C)[NH+](C)C)c1 (centres undefined)
3. CC(C)Nc1nc(O)nc(NC(C)C)n1 [Propazine-2-hydroxy I]
4. CC(CCC(=O)[O-])C1CCC2C3C(O)CC4CC(O)CCC4(C)C3CCC12C (centres undefined)
5. CN(C)C(=O)Nc1ccc(Cl)cc1
6. OCC1OC(OC2(CCl)OC(CCl)C(O)C2O)C(O)C(O)C1Cl (centres undefined)

10.8
12.2
12.7
21.1
16.9
13.4

Each molecule below has a recorded value; state its LC retention time.
1. CCNc1nc(O)nc(NC(C)C)n1 [Atrazin-2-Hydroxy]
2. NC(=O)N1c2ccccc2C2OC2c2ccccc21 (centres undefined) [Carbamazepin-10-11-epoxid]

[11.4, 15.7]
